Target: T1, human ROR1 Frizzled-His domain protein (amino acid sequence at positions 165-305, Acrobiosystems, RO1-H5222) (human, UniProt Q01973 165-305)
T1 construct: also called Human ROR1 Frizzled-His protein; not shown: His tag
T1 sequence (Q01973 165-305 limits assumed, form in doubt): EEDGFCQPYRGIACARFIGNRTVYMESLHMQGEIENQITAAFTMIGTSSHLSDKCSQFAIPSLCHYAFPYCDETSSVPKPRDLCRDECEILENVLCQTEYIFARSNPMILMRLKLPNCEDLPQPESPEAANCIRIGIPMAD
Assay: SPR Biacore T200, method as Example 6 (antibody Fc-captured, antigen as analyte)
Exercise: for every item that follows, state its recorded koff.
Answers are plain numbers, in s⁻¹.

Record request: koff value, item single domain antibody AHF21719 (Fc fusion, Fc format is inferred; not shown: human IgG1 Fc; vector and li) EVQLVESGGGLVQPGGSLRLSCAASGYISRFYAMGWYRQAPGKQRELVARISSGGWTYYADSVKGRFTISIDNSKNTLYLQMNSLRAEDTAVYYCNARNLWGQGTLVTVSS
0.00169

Name the reported koff value associated with the binder single domain antibody AHF21721 (Fc fusion, Fc format is inferred; not shown: human IgG1 Fc; vector and li) EVQLVESGGGLVQPGGSLRLSCAASGFISRFYAMGWYRQAPGKQRELVARISSMGWTYYADSVKGRFTISIDNSKNTLYLQMNSLRAEDTAVYYCNARNLWGQGTLVTVSS
0.00113

Any idea what its koff is? The binder is single domain antibody AHP15662-VHH4-Variant3 (Fc fusion, Fc format is inferred; not shown: human IgG1 Fc; vector and li) EVQLVESGGGLVQPGGSLRLSCAASHYISRFYAVGWYRQAPGKQRELVARISSGGWTYYADSVKGRFTISIDNSKNTLYLQMNSLRAEDTAVYYCNARNLWGQGTLVTVSS
0.0062

Now, please, on to the next binder.
Value lookup for koff; key = single domain antibody AHF21711 (Fc fusion, Fc format is inferred; not shown: human IgG1 Fc; vector and li) EVQLVESGGGLVQPGGSLRLSCAASHSISRFYAIGWYRQAPGKQRELVARISSMGRTYYADSVKGRFTISIDNSKNTLYLQMNSLRAEDTAVYYCNARNLWGQGTLVTVSS
0.00174
